Test: Clearance in male Sprague-Dawley rat at 2 mg/kg by LC-MS/MS analysis
Type: ADME, organism-based
Settings: in vivo
readout kind: clearance (mL/min/kg)
# output: bare number, implied unit mL/min/kg

# input Value lookup for clearance; key = Cc1sc(N)nc1/C(=N/O[C@@H](COc1ccc(C(=N)N[C@@H]2CCNC2)cc1)C(=O)O)C(=O)N[C@@H]1C(=O)N(OS(=O)(=O)O)C1(C)C
# output 12.5

###

Assay: Plasma protein binding in rat at 1 uM incubated for 6 hrs by LC-MS/MS analysis
Type: ADME, cell-free
Details: read-out: PPB (converted)
readout kind: fraction unbound at 6 h, 1 µM
Form field (numeric): enter value without unit.

# input Value lookup for fraction unbound at 6 h, 1 µM; key = CC(=O)Nc1ccc(O)cc1
# output 0.526

###

Assay: Plasma protein binding in mouse at 1 uM incubated for 6 hrs by LC-MS/MS analysis
Format: ADME, cell-free
Settings: read-out: PPB (converted)
readout kind: fraction unbound at 6 h, 1 µM

# input Value lookup for fraction unbound at 6 h, 1 µM; key = Cc1sc(N)nc1/C(=N/O[C@@H](COc1ccc(C(=N)N[C@@H]2CCNC2)cc1)C(=O)O)C(=O)N[C@@H]1C(=O)N(OS(=O)(=O)O)C1(C)C
# output 0.532

###

Assay: Volume of distribution in male Sprague-Dawley rat at 2 mg/kg by LC-MS/MS analysis
Assay type: ADME, organism-based
Conditions: in vivo
readout kind: Vd (L/kg)
# output: bare number, implied unit L/kg

# input Value lookup for Vd; key = Cc1sc(N)nc1/C(=N/O[C@@H](COc1ccc(C(=N)N[C@@H]2CCNC2)cc1)C(=O)O)C(=O)N[C@@H]1C(=O)N(OS(=O)(=O)O)C1(C)C
# output 0.37

###

Experiment: Half life in male Sprague-Dawley rat at 2 mg/kg by LC-MS/MS analysis
Format: ADME, organism-based
Details: in vivo
readout kind: half-life (min)
# output: bare number, implied unit min

# input Value lookup for half-life; key = Cc1sc(N)nc1/C(=N/O[C@@H](COc1ccc(C(=N)N[C@@H]2CCNC2)cc1)C(=O)O)C(=O)N[C@@H]1C(=O)N(OS(=O)(=O)O)C1(C)C
# output 24

###

Experiment: AUC in male Sprague-Dawley rat at 2 mg/kg by LC-MS/MS analysis
Assay type: ADME, organism-based
Conditions: in vivo
readout kind: AUC (ng·h/mL)
# output: bare number, implied unit ng·h/mL

1. Cc1sc(N)nc1/C(=N/O[C@@H](COc1ccc(C(=N)N[C@@H]2CCNC2)cc1)C(=O)O)C(=O)N[C@@H]1C(=O)N(OS(=O)(=O)O)C1(C)C = 2790

# input Value lookup for AUC; key = C[C@H]1[C@H](NC(=O)/C(=N\OC(C)(C)C(=O)O)c2csc(N)n2)C(=O)N1S(=O)(=O)O [AZTREONAM]
# output 2410

###

Each entry below carries its reported fraction unbound at 6 h, 1 µM.
Experiment: Plasma protein binding in human at 1 uM incubated for 6 hrs by LC-MS/MS analysis
Type: ADME, cell-free
Conditions: read-out: PPB (converted)
Form field (numeric): enter value without unit.

1) Cc1sc(N)nc1/C(=N/O[C@@H](COc1ccc(C(=N)N[C@@H]2CCNC2)cc1)C(=O)O)C(=O)N[C@@H]1C(=O)N(OS(=O)(=O)O)C1(C)C = 0.383

Below: the item to evaluate.
# input Value lookup for fraction unbound at 6 h, 1 µM; key = CC(=O)Nc1ccc(O)cc1 [ACETAMINOPHEN]
# output 0.741
